Where do the numbers come from? From patent US20230243070A1.

# TARGET UNDER TEST: EBNApMHC (HLA-A*0201:EBNA-1), biotinylated recombinant complex (human; Epstein Barr virus)
# ASSAY DETAILS: ribosome display selection, crude extract HTRF
RECORDED ENDPOINT: binding result

* SEQ ID NO 101 (designed binder) GSDLGEKLLAAALVGQDDEVRILLAVGADVNAKDVAGRTPLHRAALAGHLEIVEVLLKAGADVNAKDQSGFTPLHLAAVDGHLEIVEVLLKAGADVNAQDEIGATPADLAARIGHEDIAEVLQKAA | binds
* SEQ ID NO 103 (designed binder) GSDLGNKLLWAAYQGQDDEVRILLAAGADVNAKDYLGWTPLHIAATSGHLEIVEVLLKAGADVNAKDWYGYTPLHLAAEWGHLEIVEVLLKAGADVNAQDKSGKTPADLAADSGHEDIAEVLQKAA | binds
* SEQ ID NO 95 (designed binder) GSDLGQKLLRAAQAGQDDEVRELLKAGADVNAKDEVGWTPLHLAAAWGHLEIVEVLLKAGADVNAKDHFGITPLHVAAELGHLEIVEVLLKAGADVNAQDLAGRAPADLAALEGHEDIAEVLQKAA | binds
